Data provenance is the supplement of paper PMC10567573.

Recorded measurements of protein stability index, one per entry
B1: COX4I1 (parent)
chain: FDKEWVAKQTKRMLDMKVNPIQGL

Variants of: B1
Assay: protein stability index of a GFP-peptide fusion (GPS, HEK-293T) (PSI 1-6); higher = more stable;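 also: lentivirally expressed fusions sorted by FACS into six bins by GFP to DsRed ratio, PSI derived from sequencing read proportions per bin multiplied by bin number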
Settings: c terminus: a fixed tail appended
Hey, just send me the number, nothing else.

Here is how some variants turned out for protein stability index.
mutation_spec=D15E quantity_measured="protein stability index" numeric_readout=1.68
mutation_spec=L24K quantity_measured="protein stability index" numeric_readout=1.03
mutation_spec=P20C quantity_measured="protein stability index" numeric_readout=1.73
mutation_spec=Q9S quantity_measured="protein stability index" numeric_readout=2.46
mutation_spec=Q22M quantity_measured="protein stability index" numeric_readout=2.69

Identify protein stability index associated with the variant "V6G"
2.31
